These entries and their values trace back to PubChem BioAssay (NCATS).

test: Quantitative High-Throughput drug screen in 47 multiple myeloma cell lines against the NCATS MIPE library collection: KMS28PE_JCRB cell viability assay (AID 1918983); conditions: KMS28PE multiple myeloma viability, CellTiter-Glo ATP, 48 h; series mostly up to 45.8 µM; further: potency means the concentration at half of the fitted maximal effect; nearly all actives have a fitted effect of over 35% in size
Results filed as inconclusive are left out. Calls of active or inactive are those of the source. The call rests on the fitted dose curve; in most records, active means well fitted cell-killing curve with a large enough effect; inconclusive means small, poorly fitted or top-dose-only effect, or effect the other way; inactive means no such curve, though single readings can be large or run the other way.
property.measured: Potency

1. CC(C)C[C@H](NC(=O)CNC(=O)c1cc(Cl)ccc1Cl)B(O)O
0.0833 µM (active)
2. O=C(NCCCNc1nc(Nc2cccc(NC(=O)N3CCCC3)c2)ncc1I)c1cccs1
18.7 µM (active)
3. C=CC(=O)Nc1cc2c(Nc3ccc(F)c(Cl)c3)ncnc2cc1OCCCN1CCOCC1
18.7 µM (active)
4. CC(C)[C@H](C(=O)Nc1ccc(C(=O)NO)cc1)c1ccccc1
0.833 µM (active)
5. CNC(=O)c1nn(C)c2c1C(C)(C)Cc1cnc(Nc3ccc(N4CCN(C)CC4)cc3)nc1-2
4.18 µM (active)
6. NC(=O)Nc1cc(-c2cccc(F)c2)sc1C(=O)N[C@H]1CCCNC1
2.64 µM (active)
7. CC(C)CC(=O)Nc1n[nH]c2c1CN(C(=O)C1CCN(C)CC1)C2(C)C
1.18 µM (active)
8. CN1CC[C@@H](c2c(O)cc(O)c3c(=O)cc(-c4ccccc4Cl)oc23)[C@@H](O)C1
0.132 µM (active)
9. Cc1ccc2nc(NC(=O)CSc3nc4c(c(=O)n3-c3ccccc3)SCC4)sc2c1
23.5 µM (active)
10. COc1ccc(C(=O)CC2(O)C(=O)Nc3c(Cl)ccc(Cl)c32)cc1 (configuration not stated)
3.72 µM (active)
11. CNC(=O)c1c(F)cccc1Nc1nc(Nc2cc3c(cc2OC)CCN3C(=O)CN(C)C)nc2[nH]ccc12
0.132 µM (active)
12. CN1CCN(c2cc(C(=O)Nc3ccc4c(c3)-c3c(c(C(N)=O)nn3-c3ccc(F)cc3)CC4)c(Cl)cn2)CC1
23.5 µM (active)

###

experiment: qHTS for identification of novel therapeutic agents for treatment of microphthalmiaassociated transcription factor (MiT) renal cell carcinoma (RCC) (AID 1963991); conditions: TFE3-RCC UOK109 viability, CellTiter-Glo, 48 h; measured here: UOK109 Z-AUC; stronger effect = lower value;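 further: curves scaled with 100% = DMSO viability and 0% = empty wells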
Inconclusive results are not listed.
property.measured: z-score

1) C[C@@H](Oc1cc(-n2cnc3ccc(CN4CCN(C)CC4)cc32)sc1C(N)=O)c1ccccc1C(F)(F)F
-0.886
2) CC(C)c1cc(C(=O)N2Cc3ccc(CN4CCN(C)CC4)cc3C2)c(O)cc1O
-0.923
3) COc1ccc(-c2cc3c(C)nc(N)nc3n(C3CCC(OCCO)CC3)c2=O)cn1 (stereo not given)
-2.89
4) Cc1c(CN2CCN(S(C)(=O)=O)CC2)sc2c(N3CCOCC3)nc(-c3cnc(N)nc3)nc12
-2.2
5) CC(C)c1noc(N2CCC(COc3ccc(-c4ccc(S(C)(=O)=O)cc4)nc3)CC2)n1
0.525
6) CCCNC(=O)Nc1ccc(Oc2ncnc3cc(OC)c(OC)cc23)cc1Cl
0.0793
7) CC(C)[C@H](C(=O)Nc1ccc(C(=O)NO)cc1)c1ccccc1
-1.43
8) Cn1c(CNc2ccc(C(=N)N)cc2)nc2cc(C(=O)N(CCC(=O)O)c3ccccn3)ccc21
1.13
9) CCn1nnc2c(N3CCOCC3)nc(-c3ccc(NC(=O)Nc4ccc(C(=O)N5CCN(C)CC5)cc4)cc3)nc21
-1.28
10) COC(=O)[C@]12CCC(C)(C)C[C@@H]1[C@@H]1C(=O)C=C3[C@@]4(C)C=C(C#N)C(=O)C(C)(C)[C@@H]4CC[C@@]3(C)[C@]1(C)CC2
-1.73
11) O=C(Cc1ccc(-c2ccc(OCCN3CCOCC3)cc2)cn1)NCc1ccccc1
-1.65
12) Cc1ccc(NC(=O)C2(c3ccc4c(c3)OC(F)(F)O4)CC2)nc1-c1cccc(C(=O)O)c1
-2.27
13) CC=C1NC(=O)[C@H]2CSSCCC=C[C@H](CC(=O)N[C@H](C(C)C)C(=O)N2)OC(=O)[C@H](C(C)C)NC1=O
-2.23
14) C[C@@]12O[C@@H](C[C@]1(O)CO)n1c3ccccc3c3c4c(c5c6ccccc6n2c5c31)CNC4=O
-1.64
15) COCCn1c2c([n+](Cc3cnccn3)c1C)C(=O)c1ccccc1C2=O
-3.55
16) Cc1nc2cnc3ccc(C#Cc4cccnc4)cc3c2n1-c1ccc(C(C)(C)C#N)cc1
-1.96
17) Nc1ccn([C@@H]2CS[C@H](CO)O2)c(=O)n1
-0.159
18) CS(=O)(=O)N1CCN(Cc2cc3nc(-c4cccc5[nH]ncc45)nc(N4CCOCC4)c3s2)CC1
-1.55
19) CC(C)c1cc(-c2n[nH]c(=O)n2-c2ccc3c(ccn3C)c2)c(O)cc1O
-1.34
20) Cc1c(NC(=O)OC[C@@H]2COCCN2)cn2ncnc(Nc3ccc4c(cnn4Cc4cccc(F)c4)c3)c12
-1.82
21) CC(C)(C)c1cc(C(C)(C)C)c(NC(=O)c2c[nH]c3ccccc3c2=O)cc1O
0.938
22) O=C(NCCS(=O)(=O)c1ccc(C(F)(F)F)cn1)c1ccc(Cl)cc1
-0.45
23) CC(C)C[C@H](NC(=O)CNC(=O)c1cc(Cl)ccc1Cl)B(O)O
-1.3
24) CCc1c2c(nc3ccc(O)cc13)-c1cc3c(c(=O)n1C2)COC(=O)[C@]3(O)CC
-1.63
25) C=CC(=O)Nc1cccc(Oc2nc(Nc3ccc(N4CCN(C)CC4)cc3)ncc2Cl)c1
-2.72
